Numbers sourced from patent US10077243B2.

Reported values of EC50 for individual entries
Target Or System: human mGluR5 (Homo sapiens, UniProt P41594)
Construct: expressed in transfected cells; host or cells: HEK293 cells stably expressing rat GLAST (EAAT1), stably transfected with pcDNAzeo3.1 carrying synthetic human mGluR5 DNA; zeocin-selected single clones
Sequence (P41594 21-1212): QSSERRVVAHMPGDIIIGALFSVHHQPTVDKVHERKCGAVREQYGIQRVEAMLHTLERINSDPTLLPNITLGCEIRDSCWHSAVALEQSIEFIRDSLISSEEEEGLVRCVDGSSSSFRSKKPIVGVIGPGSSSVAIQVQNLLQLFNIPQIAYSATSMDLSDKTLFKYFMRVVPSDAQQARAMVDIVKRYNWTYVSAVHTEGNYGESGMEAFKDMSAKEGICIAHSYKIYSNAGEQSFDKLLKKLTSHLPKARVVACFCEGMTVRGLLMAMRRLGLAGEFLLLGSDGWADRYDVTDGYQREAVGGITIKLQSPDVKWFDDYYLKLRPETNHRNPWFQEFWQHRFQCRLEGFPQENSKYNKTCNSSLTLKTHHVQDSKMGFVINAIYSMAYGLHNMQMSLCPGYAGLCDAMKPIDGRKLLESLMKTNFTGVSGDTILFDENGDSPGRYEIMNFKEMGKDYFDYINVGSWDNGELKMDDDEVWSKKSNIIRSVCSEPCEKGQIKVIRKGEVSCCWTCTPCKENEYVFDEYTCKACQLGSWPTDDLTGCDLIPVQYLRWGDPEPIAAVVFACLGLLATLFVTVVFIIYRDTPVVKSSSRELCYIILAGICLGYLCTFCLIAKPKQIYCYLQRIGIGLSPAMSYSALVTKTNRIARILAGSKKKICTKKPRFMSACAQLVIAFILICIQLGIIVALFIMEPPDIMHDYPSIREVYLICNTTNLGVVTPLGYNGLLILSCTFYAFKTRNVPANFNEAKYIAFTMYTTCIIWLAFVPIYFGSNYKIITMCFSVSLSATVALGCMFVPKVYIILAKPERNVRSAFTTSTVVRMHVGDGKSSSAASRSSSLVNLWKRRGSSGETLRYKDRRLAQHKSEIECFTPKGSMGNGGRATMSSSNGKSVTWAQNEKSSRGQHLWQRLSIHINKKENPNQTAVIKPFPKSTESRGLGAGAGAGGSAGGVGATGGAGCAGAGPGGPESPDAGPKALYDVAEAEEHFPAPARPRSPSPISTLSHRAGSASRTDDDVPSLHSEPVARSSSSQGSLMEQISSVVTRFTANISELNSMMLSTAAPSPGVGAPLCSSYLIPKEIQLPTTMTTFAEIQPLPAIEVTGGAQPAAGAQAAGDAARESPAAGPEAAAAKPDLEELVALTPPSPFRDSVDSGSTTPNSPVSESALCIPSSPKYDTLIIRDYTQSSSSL
Protocol Notes: In vitro cell-based FLIPR calcium assay for positive modulation of the activation of mGluR5 by glutamate (PAM EC50)
Measurement Setup: HEK293/GLAST cells expressing recombinant human mGluR5; FLIPR calcium signal; glutamate added at its EC20; read-out: mGluR5 PAM EC50
Source text: The DNA sequences encoding the structural regions for rat mGluR5 [Abe T, Sugihara H, Nawa H, Shigemoto R, Mizuno N, Nakanishi S (1992) “Molecular characterization of a novel metabotropic glutamate receptor mGluR5 coupled to inositol phosphate/Ca^2+ signal transduction” Journal of Biological Chemistry vol. 267, no. […]
Quantity Measured: EC50

• CN(C)CC1CCc2nc3cc(C#Cc4cccc(F)c4)ccc3c(=O)n2C1 (stereo not drawn) [Example 4.36] = 300 to 1000 nM
• O=c1c2ccc(/C=C/c3ccccc3)cc2nc2n1CCCCC2 [Example 20.2] = < 10 nM
• Cn1cc(C#Cc2ccc3c(=O)n4c(nc3c2)CCC2(CC4)OCCO2)cn1 [Example 7.69] = 100 to 300 nM
• Cc1cc(C#Cc2ccc3c(=O)n4c(nc3c2)CCC2(CC4)OCCO2)ccn1 [Example 7.47] = 10 to 30 nM
• Cc1cc(F)ccc1C#Cc1ccc2c(=O)n3c(nc2c1)CCC1(CC3)OCCO1 [Example 7.6] = 300 to 1000 nM
• CC1CCc2nc3cc(C#Cc4ccccn4)ccc3c(=O)n21 (stereo not drawn) [Example 3.14] = 100 to 300 nM
